// reported LC50 at 48 h per item
Assay: Lethal toxicity to the aquatic invertebrate Ceriodaphnia dubia (acute 48 hr and chronic 7 day)
Details: in vivo
// return numeric value only (unit: µg/mL, not printed)

{"compound": "Nc1ncnc2c([C@@H]3O[C@H](CO)[C@@H](O)[C@H]3O)c[nH]c12", "LC50 at 48 h, µg/mL": 0.3}

# LC50 at 48 h of Nc1ncnc2c([C@@H]3O[C@H](CO[C@H]4O[C@H](CO)[C@@H](O)[C@H](O)[C@H]4O)[C@@H](O)[C@H]3O)c[nH]c12 [Compound 1, 9-deazaadenosine 5'-α-D-glucopyranoside] = 0.5

###

// reported LC50 at 168 h per item
Assay: Lethal toxicity to the aquatic invertebrate Ceriodaphnia dubia (acute 48 hr and chronic 7 day)
Conditions: in vivo
// return numeric value only (unit: µg/mL, not printed)

{"compound": "Nc1ncnc2c([C@@H]3O[C@H](CO)[C@@H](O)[C@H]3O)c[nH]c12", "LC50 at 168 h, µg/mL": 0.1}

Could you now look at the following compound, please?
# LC50 at 168 h of Nc1ncnc2c([C@@H]3O[C@H](CO[C@H]4O[C@H](CO)[C@@H](O)[C@H](O)[C@H]4O)[C@@H](O)[C@H]3O)c[nH]c12 [Compound 1, 9-deazaadenosine 5'-α-D-glucopyranoside] = 0.3
